Assay System: feline FcRn complex (FcRn-α subunit and β-microglobulin), biotin labeled (feline)
Protocol Notes: SPR, pH 6
Endpoint: Kd (nM)
Could you give me the number in nM? Just the number is fine.

Binder	Kd, nM
feline IgG1a S254K (antibody, part only; not given: Variable domains, not shown: another chain or arm of the molecule) constant: ASTTAPSVFPLAPSCGTTSGATVALACLVLGYFPEPVTVSWNSGALTSGVHTFPAVLQASGLYSLSSMVTVPSSRWLSDTFTCNVAHPPSNTKVDKTVRKTDHPPGPKPCDCPKCPPPEMLGGPSIFIFPPKPKDTLSIKRTPEVTCLVVDLGPDDSDVQITWFVDNTQVYTAKTSPREEQFNSTYRVVSVLPILHQDWLKGKEFKCKVNSKSLPSPIERTISKAKGQPHEPQVYVLPPAQEELSRNKVSVTCLIKSFHPPDIAVEWEITGQPEPENNYRTTPPQLDSDGTYFVYSKLSVDRSHWQRGNTYTCSVSHEALHSHHTQKSLTQSPGK	46.5

Below: the item to evaluate.
Sample feline IgG1a S252Y/S428M (antibody, part only; not given: Variable domains, not shown: another chain or arm of the molecule) constant: ASTTAPSVFPLAPSCGTTSGATVALACLVLGYFPEPVTVSWNSGALTSGVHTFPAVLQASGLYSLSSMVTVPSSRWLSDTFTCNVAHPPSNTKVDKTVRKTDHPPGPKPCDCPKCPPPEMLGGPSIFIFPPKPKDTLYISRTPEVTCLVVDLGPDDSDVQITWFVDNTQVYTAKTSPREEQFNSTYRVVSVLPILHQDWLKGKEFKCKVNSKSLPSPIERTISKAKGQPHEPQVYVLPPAQEELSRNKVSVTCLIKSFHPPDIAVEWEITGQPEPENNYRTTPPQLDSDGTYFVYSKLSVDRSHWQRGNTYTCSVMHEALHSHHTQKSLTQSPGK — what was its Kd? 2.58
